MEASURED ON: factor Xa (human, UniProt P00742;P00742 P00742:41-179,P00742:235-488)
Sequence (P00742 41-179, chain 1 of 2): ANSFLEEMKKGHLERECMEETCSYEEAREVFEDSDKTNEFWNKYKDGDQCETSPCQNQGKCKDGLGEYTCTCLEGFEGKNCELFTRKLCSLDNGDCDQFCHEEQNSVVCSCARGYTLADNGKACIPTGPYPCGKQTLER
Sequence (P00742 235-488, chain 2 of 2): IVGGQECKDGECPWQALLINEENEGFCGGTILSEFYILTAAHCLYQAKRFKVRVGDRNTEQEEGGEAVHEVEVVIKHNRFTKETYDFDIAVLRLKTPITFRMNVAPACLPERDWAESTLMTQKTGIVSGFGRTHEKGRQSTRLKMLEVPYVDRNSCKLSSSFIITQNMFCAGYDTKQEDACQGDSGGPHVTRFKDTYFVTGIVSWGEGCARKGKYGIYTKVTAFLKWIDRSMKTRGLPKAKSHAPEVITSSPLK
PROCEDURE TEXT: inhibition; fluorogenic substrate; free APX IC50 5.5 nM
ASSAY SETUP: tags: Haematologic Technologies Inc
OUTCOME MEASURE: IC50 (nM)
Lab book: enter the figure in nM, no units written.

Which IC50 is reported for this binder? 11F7t-20A-APX (ssRNA, 5' apixaban-C6; 2'-OMe A(20) linker; C and U of aptamer 2'-F (inferred); 3' T) RNA: AAAAAAAAAAAAAAAAAAAAGAGAGCCCCAGCGAGAUAAUACUUGGCCCCGCUCUU
0.17
